Listing: metabolised at 24 h of selected molecules
experiment: Stability in human serum assessed as degradation after 24 hrs by HPLC analysis; type: ADME, cell-free; conditions: read-out: Drug degradation

CC[C@H](C)[C@H](NC(=O)[C@H](Cc1ccc(C(F)(F)P(=O)(O)O)cc1)NC(=O)[C@H](CC(N)=O)NC(=O)[C@H](CC(C)C)NC(=O)CNC(C)=O)C(=O)N[C@@H](CC(=O)O)C(=O)N[C@@H](CC(C)C)C(=O)N[C@@H](CC(=O)O)C(=O)N[C@@H](Cc1c[nH]c2ccccc12)C(N)=O; < 50%

Here is the next item to consider.
Prompt line: What value of measured metabolised at 24 h is listed for "CC[C@H](C)[C@H](NC(=O)[C@H](Cc1ccc(OP(=O)(O)O)cc1)NC(=O)[C@H](CC(N)=O)NC(=O)[C@H](CC(C)C)NC(C)=O)C(=O)N[C@@H](CC(=O)O)C(=O)N[C@@H](CC(C)C)C(=O)N[C@@H](CC(=O)O)C(=O)N[C@@H](Cc1c[nH]c2ccccc12)C(N)=O" ?
Response line: < 50%
